The values you see were collected from patent US20230250157A1.

Biological target: RaTG13 RBD
Test: ELISA
attributeMeasured: EC50

State the recorded EC50 for this entry: M8a-25 (antibody, V domains shown) VH: EVQLQQSVAELVRPGASVKLSCTASGFNIKNTYMHWVKQRPEQGLEWIGRIDPSIDHTRYAPKFQGKAVITAFTSSNTAYLQLSSLTSEDTAIYYCAREGGGNYPYYYAIDYWGQGTSVTVSS VL: DIQMTQSSSSFSVSLGDRVTITCKASEDIYIRLAWYQQRPGNAPRLLISNAISLETGVPSRFSGSGFGKDHTLSITSLQTEDVATYYCQQYWSTPWTFGGGTKLEIK > 10 mg/L
